Exercise: for every item that follows, state its recorded interaction score.
Target: T1, P8A
T1 chain: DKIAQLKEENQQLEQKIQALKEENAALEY
Assay: two-hybrid library CCNG1;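 further: natural log of median RNA to DNA barcode read ratio; higher means stronger binding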
Could you keep your reply to the number by itself?

Entry under review: DEIQALEEENAQLEQENAALEEEIAQLEY [P1A] . Reported interaction score?
-1

Query (binder): DKNAALKEEIQALEEENQALEEKIAQLKY [P6A] ; field requested: interaction score
-0.152

Fill in: interaction score of DENAALEEKIAQLKQKNAALKEEIQALEY [P5A] is ___
-1.04

Need interaction score, item DEIQALEEKNAQLKQEIAALEEKNQALKY [P7A]
2.24
